# target: cAMP-dependent protein kinase (PKA) (Homo sapiens, UniProt P22694+P17612+P22612)
# assay-text: Inhibitory activity against Protein kinase A (Histone)
# Type: protein assay

structure: Cc1ccc2[nH]c3c4ccc5ccn(C)c5c4c4c(c3c2c1)C(=O)NC4=O
readout-units: µM
comparison-sign: =
IC50: 4.06

structure: COc1cc2c3[nH]c4ccccc4c3c3c(c2c2c1ccn2C)C(=O)NC3=O
readout-units: µM
comparison-sign: =
IC50: 13.2

structure: COc1ccc2c3c4c(c5c(ccc6ccn(C)c65)c3n(CCCN3CCOCC3)c2c1)C(=O)NC4=O
readout-units: µM
comparison-sign: >
IC50: 20

structure: Cn1ccc2cc(F)c3c4[nH]c5ccccc5c4c4c(c3c21)C(=O)NC4=O
readout-units: µM
comparison-sign: >
IC50: 20

structure: Cn1ccc2ccc3c4[nH]c5c(CCN6CCC(O)CC6)cccc5c4c4c(c3c21)C(=O)NC4=O
readout-units: µM
comparison-sign: =
IC50: 2.99

structure: Cn1ccc2ccc3c4[nH]c5cc(O)ccc5c4c4c(c3c21)C(=O)NC4=O
readout-units: µM
comparison-sign: =
IC50: 2.35

structure: CCc1ccc2c(c1)[nH]c1c3ccc4ccn(C)c4c3c3c(c21)C(=O)NC3=O
readout-units: µM
comparison-sign: >
IC50: 20

structure: O=C1NC(=O)c2c1c1c(ccc3cc[nH]c31)c1c2c2ccccc2n1CCCO
readout-units: µM
comparison-sign: >
IC50: 20

structure: COc1ccc2[nH]c3c4ccc5ccn(C)c5c4c4c(c3c2c1)C(=O)NC4=O
readout-units: µM
comparison-sign: >
IC50: 20

structure: COc1cccc2c1[nH]c1c3ccc4ccn(C)c4c3c3c(c21)C(=O)NC3=O
readout-units: µM
comparison-sign: >
IC50: 20

---

# target: Cyclin-dependent kinase 4/cyclin D1 (Homo sapiens, UniProt P11802)
# Sequence (P11802 whole entry): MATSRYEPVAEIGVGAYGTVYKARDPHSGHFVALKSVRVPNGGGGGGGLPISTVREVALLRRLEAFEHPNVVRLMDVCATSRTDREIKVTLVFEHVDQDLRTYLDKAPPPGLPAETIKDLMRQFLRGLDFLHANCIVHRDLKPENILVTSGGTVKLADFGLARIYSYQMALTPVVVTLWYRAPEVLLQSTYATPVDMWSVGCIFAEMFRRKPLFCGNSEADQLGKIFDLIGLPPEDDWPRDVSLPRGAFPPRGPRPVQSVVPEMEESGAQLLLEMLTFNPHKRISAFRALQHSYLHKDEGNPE
# Sequence (P24385 whole entry, further chain): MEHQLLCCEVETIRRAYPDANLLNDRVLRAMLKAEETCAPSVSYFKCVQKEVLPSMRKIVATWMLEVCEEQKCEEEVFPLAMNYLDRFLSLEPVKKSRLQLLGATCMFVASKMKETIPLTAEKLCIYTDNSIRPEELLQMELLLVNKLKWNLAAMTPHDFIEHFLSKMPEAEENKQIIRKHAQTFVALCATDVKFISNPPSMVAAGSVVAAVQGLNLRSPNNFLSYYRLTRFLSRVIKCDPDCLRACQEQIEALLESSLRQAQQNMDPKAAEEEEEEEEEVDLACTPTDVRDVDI
# assay-text: Inhibitory activity against Cyclin D1-cyclin-dependent kinase 4 in enzymatic assay by measuring phosphorylation of Rb21
# Type: protein-complex assay
experimental-endpoint: log10(IC50) (log10 of the value in nM)

structure: COc1ccc2c(c1)[nH]c1c3ccc4ccn(C)c4c3c3c(c21)C(=O)NC3=O
log10(IC50): 0.78
//
structure: CCn1ccc2ccc3c4[nH]c5ccccc5c4c4c(c3c21)C(=O)NC4=O
log10(IC50): 1.28
//
structure: Cn1ccc2ccc3c4[nH]c5c(CCN[C@H]6CC[C@H](O)CC6)cccc5c4c4c(c3c21)C(=O)NC4=O
log10(IC50): 0.70
//
structure: Cn1ccc2ccc3c4[nH]c5c(CCN6CCC[C@H]6CO)cccc5c4c4c(c3c21)C(=O)NC4=O
log10(IC50): 1.36
//
structure: Cn1ccc2ccc3c4[nH]c5c(CCN6CCC(C(N)=O)CC6)cccc5c4c4c(c3c21)C(=O)NC4=O
log10(IC50): 0.70
//
structure: Cn1ccc2ccc3c4[nH]c5c(CCNCCO)cccc5c4c4c(c3c21)C(=O)NC4=O
log10(IC50): 1.00
//
structure: CCc1ccc2c(c1)[nH]c1c3ccc4ccn(C)c4c3c3c(c21)C(=O)NC3=O
log10(IC50): 1.34
//
structure: COc1ccc2c(c1)[nH]c1c3ccc4cc[nH]c4c3c3c(c21)C(=O)NC3=O
log10(IC50): 1.56
//
structure: Cn1ccc2ccc3c4[nH]c5cc(OCc6ccccc6)ccc5c4c4c(c3c21)C(=O)NC4=O
log10(IC50): 1.40
//
structure: Cn1ccc2cc(F)c3c4[nH]c5ccccc5c4c4c(c3c21)C(=O)NC4=O
log10(IC50): 1.20
//
structure: CCn1ccc2ccc3c(c4c(c5c6ccccc6n(CCCO)c35)C(=O)NC4=O)c21
log10(IC50): 1.95
//
structure: Cc1ccc2[nH]c3c4ccc5ccn(C)c5c4c4c(c3c2c1)C(=O)NC4=O
log10(IC50): 2.61
//
structure: COc1cccc2c1[nH]c1c3ccc4ccn(C)c4c3c3c(c21)C(=O)NC3=O
log10(IC50): 1.60
//
structure: Cn1ccc2ccc3c(c4c(c5c6ccccc6n(CCCO)c35)C(=O)NC4=O)c21
log10(IC50): 1.62
//
structure: Cn1ccc2ccc3c4[nH]c5ccc(F)cc5c4c4c(c3c21)C(=O)NC4=O
log10(IC50): 1.59
//
structure: Cc1cc2ccn(C)c2c2c3c(c4c5ccccc5[nH]c4c12)C(=O)NC3=O
log10(IC50): 0.30
//
structure: O=C1NC(=O)c2c1c1c(ccc3cc[nH]c31)c1[nH]c3cc(O)ccc3c21
log10(IC50): 1.23
//
structure: COc1ccc2c3c4c(c5c(ccc6ccn(C)c65)c3n(CCNCCO)c2c1)C(=O)NC4=O
log10(IC50): 1.32
//
structure: COc1ccc2c3c4c(c5c(ccc6ccn(C)c65)c3n(CCN3CCCCC3)c2c1)C(=O)NC4=O
log10(IC50): 1.52

---

# assay-text: Aqueous solubility (in situ) in D5W after 1 week was determined
# Type: physicochemical
# experimental-setup: D5W

structure: Cn1ccc2ccc3c4[nH]c5c(CCN6CCCCC6)cccc5c4c4c(c3c21)C(=O)NC4=O
solubility at 168 h: 8500 µg/mL
--
structure: Cn1ccc2ccc3c4[nH]c5c(CCCN[C@H]6CC[C@H](O)CC6)cccc5c4c4c(c3c21)C(=O)NC4=O
solubility at 168 h: 8900 µg/mL
--
structure: COc1ccc2c3c4c(c5c(ccc6ccn(C)c65)c3n(CCN[C@H]3CC[C@H](O)CC3)c2c1)C(=O)NC4=O
solubility at 168 h: 7800 µg/mL
--
structure: COc1ccc2c3c4c(c5c(ccc6ccn(C)c65)c3n(CCCNCCO)c2c1)C(=O)NC4=O
solubility at 168 h: 8600 µg/mL
--
structure: Cn1ccc2ccc3c4[nH]c5c(CCN6CCOCC6)cccc5c4c4c(c3c21)C(=O)NC4=O
solubility at 168 h: 8700 µg/mL
--
structure: COc1ccc2c3c4c(c5c(ccc6ccn(C)c65)c3n(CCNCCO)c2c1)C(=O)NC4=O
solubility at 168 h: 6000 µg/mL

---

# Tested on: HCT-116
# assay-text: In vitro antiproliferative activity against human carcinoma cell line HCT116 (colon)
# Assay type: functional, cell-based
pIC50: −log10 of the molar value.

compound: Cn1ccc2ccc3c4[nH]c5c(CCN6CCNCC6)cccc5c4c4c(c3c21)C(=O)NC4=O
comparison-sign: =
pIC50: 5.98
//
compound: COc1ccc2c3c4c(c5c(ccc6ccn(C)c65)c3n(CCCO)c2c1)C(=O)NC4=O
comparison-sign: =
pIC50: 5.79
//
compound: COc1ccc2c3c4c(c5c(ccc6ccn(C)c65)c3n(CCCN3CCN(C)CC3)c2c1)C(=O)NC4=O
comparison-sign: =
pIC50: 6.35
//
compound: Cn1ccc2ccc3c4[nH]c5cc(OCc6ccccc6)ccc5c4c4c(c3c21)C(=O)NC4=O
comparison-sign: =
pIC50: 5.19
//
compound: Cn1ccc2ccc3c4[nH]c5cccc(CO)c5c4c4c(c3c21)C(=O)NC4=O
comparison-sign: <
pIC50: 5.00
//
compound: COc1ccc2c3c4c(c5c(ccc6ccn(C)c65)c3n(CCCN3CCOCC3)c2c1)C(=O)NC4=O
comparison-sign: =
pIC50: 5.77
//
compound: COc1ccc2c(c1)[nH]c1c3ccc4ccn(C)c4c3c3c(c21)C(=O)NC3=O
comparison-sign: =
pIC50: 5.74
//
compound: CCn1ccc2ccc3c(c4c(c5c6ccccc6n(CCCO)c35)C(=O)NC4=O)c21
comparison-sign: =
pIC50: 5.92
//
compound: Cc1cc2ccn(C)c2c2c3c(c4c5ccc(C(F)(F)F)cc5[nH]c4c12)C(=O)NC3=O
comparison-sign: =
pIC50: 5.06
//
compound: Cn1ccc2cc(F)c3c4[nH]c5ccccc5c4c4c(c3c21)C(=O)NC4=O
comparison-sign: =
pIC50: 5.46
//
compound: COc1ccc2c3c4c(c5c(ccc6ccn(C)c65)c3n(CCN3CCC[C@H]3CO)c2c1)C(=O)NC4=O
comparison-sign: =
pIC50: 5.57
//
compound: Cn1ccc2ccc3c4[nH]c5c(CCN6CCC[C@H]6CO)cccc5c4c4c(c3c21)C(=O)NC4=O
comparison-sign: =
pIC50: 6.38
//
compound: Cn1ccc2ccc3c(c4c(c5c6ccccc6n(CCCO)c35)C(=O)NC4=O)c21
comparison-sign: =
pIC50: 5.87
//
compound: Cn1ccc2ccc3c4[nH]c5c(CCCN[C@H]6CC[C@H](O)CC6)cccc5c4c4c(c3c21)C(=O)NC4=O
comparison-sign: =
pIC50: 5.98
//
compound: Cn1ccc2ccc3c4[nH]c5cc(Br)ccc5c4c4c(c3c21)C(=O)NC4=O
comparison-sign: =
pIC50: 5.97
//
compound: COc1ccc2c3c4c(c5c(ccc6ccn(C)c65)c3n(CCCNCCO)c2c1)C(=O)NC4=O
comparison-sign: =
pIC50: 5.81
//
compound: Cn1ccc2ccc3c4[nH]c5cccc(F)c5c4c4c(c3c21)C(=O)NC4=O
comparison-sign: <
pIC50: 5.70
//
compound: COc1cc2ccn(C)c2c2c3c(c4c5ccccc5[nH]c4c12)C(=O)NC3=O
comparison-sign: =
pIC50: 5.72
//
compound: CCn1ccc2ccc3c4[nH]c5ccccc5c4c4c(c3c21)C(=O)NC4=O
comparison-sign: =
pIC50: 5.34
//
compound: Cc1cc2ccn(C)c2c2c3c(c4c5ccccc5n(CCCCO)c4c12)C(=O)NC3=O
comparison-sign: <
pIC50: 5.00
//
compound: Cn1ccc2ccc3c4[nH]c5ccc(F)cc5c4c4c(c3c21)C(=O)NC4=O
comparison-sign: <
pIC50: 5.00
//
compound: Cn1ccc2ccc3c4[nH]c5cccc(Br)c5c4c4c(c3c21)C(=O)NC4=O
comparison-sign: =
pIC50: 5.33
//
compound: Cn1ccc2ccc3c4[nH]c5c(CCCO)cccc5c4c4c(c3c21)C(=O)NC4=O
comparison-sign: =
pIC50: 5.52
//
compound: Cc1ccc2[nH]c3c4ccc5ccn(C)c5c4c4c(c3c2c1)C(=O)NC4=O
comparison-sign: =
pIC50: 5.54
//
compound: COc1ccc2c(c1)[nH]c1c3ccc4cc[nH]c4c3c3c(c21)C(=O)NC3=O
comparison-sign: =
pIC50: 5.67
//
compound: Cn1ccc2ccc3c4[nH]c5c(CCN6CCOCC6)cccc5c4c4c(c3c21)C(=O)NC4=O
comparison-sign: =
pIC50: 5.79
//
compound: COc1cc2c3[nH]c4ccccc4c3c3c(c2c2c1ccn2C)C(=O)NC3=O
comparison-sign: =
pIC50: 5.95
//
compound: Cn1ccc2ccc3c4[nH]c5ccccc5c4c4c(c3c21)C(=O)NC4=O
comparison-sign: =
pIC50: 5.68
//
compound: COc1cccc2[nH]c3c4ccc5ccn(C)c5c4c4c(c3c12)C(=O)NC4=O
comparison-sign: <
pIC50: 5.00
//
compound: Cn1ccc2ccc3c4[nH]c5c(CCNCCO)cccc5c4c4c(c3c21)C(=O)NC4=O
comparison-sign: =
pIC50: 6.77
//
compound: Cn1ccc2ccc3c4[nH]c5cc(F)ccc5c4c4c(c3c21)C(=O)NC4=O
comparison-sign: <
pIC50: 5.00
//
compound: Cc1cc2ccn(C)c2c2c3c(c4c5ccc(F)cc5[nH]c4c12)C(=O)NC3=O
comparison-sign: =
pIC50: 6.24
//
compound: COc1ccc2c3c4c(c5c(ccc6ccn(C)c65)c3n(CCO)c2c1)C(=O)NC4=O
comparison-sign: =
pIC50: 5.39
//
compound: O=C1NC(=O)c2c1c1c(ccc3cc[nH]c31)c1[nH]c3ccccc3c21
comparison-sign: =
pIC50: 5.84
//
compound: Cn1ccc2ccc3c4[nH]c5c(CCCNCCO)cccc5c4c4c(c3c21)C(=O)NC4=O
comparison-sign: =
pIC50: 6.11
//
compound: O=C1NC(=O)c2c1c1c3ccccc3[nH]c1c1[nH]c3ccccc3c21 [STAUROSPORINE AGLYCON]
comparison-sign: =
pIC50: 6.07
//
compound: Cn1ccc2ccc3c4[nH]c5c(Br)cccc5c4c4c(c3c21)C(=O)NC4=O
comparison-sign: =
pIC50: 4.77
//
compound: O=C1NC(=O)c2c1c1c(ccc3cc[nH]c31)c1c2c2ccccc2n1CCCO
comparison-sign: =
pIC50: 6.12
